B1: library; a variant is named by its letters at N, in order (parent)
chain: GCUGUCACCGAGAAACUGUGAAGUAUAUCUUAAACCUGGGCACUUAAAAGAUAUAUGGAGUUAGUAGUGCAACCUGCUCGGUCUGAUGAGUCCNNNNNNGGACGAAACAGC

variants of: B1; test: normalized RNA/DNA level with ligand (relative to sTRSVctl = 100) (log10 (% of sTRSVctl)); HEK293T; ligand: cyclic di-GMP (c-di-GMP-II aptamer); ligand concentration (+) RNA-Seq: 1 mM; higher = less ribozyme self-cleavage, higher mRNA level; conditions: reporter: mCherry (pCS4076), ligand present: yes
readout_label: normalized RNA/DNA level with ligand (log10)
The response must contain the number and no unit.

Solved cases (5 shown):
>  <mutation_label>
ACUUGU

>  <assay_value>
1.83

$$$$
>  <mutation_label>
UCAUGA

>  <assay_value>
1.75

$$$$
>  <mutation_label>
ACGUUU

>  <assay_value>
1.52

$$$$
>  <mutation_label>
AUCUAA

>  <assay_value>
1.7

$$$$
>  <mutation_label>
UCGUGA

>  <assay_value>
1.73

$$$$

Request: Which normalized RNA/DNA level with ligand (log10) value belongs to `AUCGUU` ?
Result: 1.78

Request: Now give it for `GAACUU` too.
Result: 1.83

Request: Now give it for `CAAUGA` too.
Result: 1.74

Request: Now give it for `AAUCAC` too.
Result: 1.83
